Data provenance: the nanobody polyreactivity screen of Harvey et al. (2022)

- Assay Remarks: yeast display, Sf9 membrane polyspecificity reagent, FACS + sequencing; frameworks hold sequencing errors
Value Type: polyreactivity (PSR sort gate)

Worked set:
query: What polyreactivity (PSR sort gate) value was documented for this sequence, QVQLVESGGGLVQAGGSLRLSCAASGSIFYSYAMGWYRQAPGKERELVADITSSGGSTYYADSVKGRFTISRDNAKNTVYFQMNSLKPEDTAVYYCAASSPAFYGMRYNYWGHGTQVTVSS ?
result: low polyreactivity

query: What polyreactivity (PSR sort gate) value was documented for this sequence, QVQLVESGGGFVQAGGSLRLSCAASGFIFWLNAMGWYRQAPGKERELVAASSIGGRTNYADSVKGRFTISRDNAKNTVYLQMNSLTPEDTAVYFCNNDYRSVYKGRGFDYWGQGTQVTVSS ?
result: low polyreactivity

query: What polyreactivity (PSR sort gate) value was documented for this sequence, QVQLVESGGGLVQAGGSLRLSCAASGSTFSSNVMGWYRQAPGKERELVAAITGSGSRTYYADSVKGRFTISRDNAKNTVYLQMNSLKPEDTAVYYCNTKGRSRETYGYDYWGQGTQVTVSS ?
result: high polyreactivity

query: What polyreactivity (PSR sort gate) value was documented for this sequence, QVQLVESGGGLVQAGGSLRLSCAASGSIFTFYAMGWYRQAPGKERELVATITWLGGSTYADAVKGRFTISRDNAKNTVYLQMNSLKPEDTAVYYCNADYRSYWYKLDYWGQGTQVTVSS ?
result: high polyreactivity

Now look at this one.
query: What polyreactivity (PSR sort gate) value was documented for this sequence, QVQLVDSGGGLVQAGGSLRLSCAASGSIFVPYAMGWYRQAPRKERELVAAISWSGGSTNYADSVKGRFTISRDNAKNTVYLQMNSLKPEDTAVYYCNARWSSWYIHSHYYYWGQGTQVTVSS ?
result: high polyreactivity

====

- Assay Remarks: yeast display, Sf9 membrane polyspecificity reagent, FACS + sequencing; frameworks hold sequencing errors
Value Type: polyreactivity (PSR sort gate)

query: What polyreactivity (PSR sort gate) value was documented for this sequence, QVQLVESGGVLVQAGGSLRLSCAASGSTFYNNAMGWYRQAPGKERALVATISSGGGSTYYADSVKGRFTISRDNEKNTVYLQMNSLKPEDTAVYYCAAYVLPYGEYDYWGQGTQVTVSS ?
result: low polyreactivity

query: What polyreactivity (PSR sort gate) value was documented for this sequence, QVQLVESGGGLVQAGGSLRLSCDASGSIFIPYAMGWYRQAPGKERELVAAISGSGTSTNYADSVKGRFTISRDNAKNTVYLQMNSLKPEDTAVYYCAARLPYGYLRSKFYYWGQGTQVTVSS ?
result: high polyreactivity

query: What polyreactivity (PSR sort gate) value was documented for this sequence, QVQLVESGGGLVQAGGSLRLSCAASGSTFSAYTMGWYRQAPGKERELVARITNGGSTYYAESVKGRFTISRDNAKNTVYLQMNSLKPEDTAVYYCAAQLGWWGSGYWGQGTQVTLSS ?
result: high polyreactivity

query: What polyreactivity (PSR sort gate) value was documented for this sequence, QVLLLESGGGVVQAGGSHRLRCAASGRIFCTNTMGWYRQAPGKERELVAVISSSGDSTYYADSVKGRFTISRDNAKNTVYLQINSLKPEDTAVYYCAKGNNWISRLMDYWGQGTQVTVSS ?
result: low polyreactivity

query: What polyreactivity (PSR sort gate) value was documented for this sequence, QVQLVETGGGIVQAGGILRLSCAYSGSIFYLYAMGWYRQAPGKERELVAAISTSGGRTHYADSVKGRITISRDNAKNTVYLQMNSLKPEDTAVYYCAAPAARPDGGYGYWGQGTQVTVSS ?
result: high polyreactivity

query: What polyreactivity (PSR sort gate) value was documented for this sequence, QVQLVESGGGLVQAGGSLRLSCAASGFTFKNYAMGWYRQAPGKEREFVATISSRGGSTYYADSVKGRFTISRDNAKNTVYLQMNSLKPEDTAVYYCATSRYLSRSSEYGYWGQGTQVTVSS ?
result: high polyreactivity

query: What polyreactivity (PSR sort gate) value was documented for this sequence, QVQLVESGGGLVQAGGSLHLSCAASGRIFGKYAMGWYRQAPGKEREFVAAIRSSDGNTYYADSVKGRFTISRDNAKNTVYLQMNSLKPEDTAVYYCAARGTLWTYGYWGQGTQVTVSS ?
result: high polyreactivity

query: What polyreactivity (PSR sort gate) value was documented for this sequence, QVQLVESGGGLVQAGGSLRLSCAASGSIFRRNAMGWYRQVPGKERELVAAITWRGDRTYYADSVKGRFTISRDNAKNTVYLQMNSLKPEDTAVYYCNKLGRIQYDYWGQGTQVTVSS ?
result: high polyreactivity

I have 4 sequences here; please give me polyreactivity (PSR sort gate) for each one.
1. QVQLVESGGGLVQAGGSLRLSCAPTGFIFFTYAMGWYRQAPGKERELVAAISQSGASTYYADSVKGRFTISRDNAKKTVYLQMNSLKPEDSAVDYCAATYSFRYWIQRYNYWGQGTQVTVSS
2. QVQLVESGGGLVQAGGSLRLSCAASGFTFTTYAMGWYRQAPGKERELVARISRRSGSTYYADSVKGRFTISRDNAKYTVYLQMNSLKPEDTAVYYCNADVDRSTTIFDYWGQGTQVTVSS
3. QVQLVESGGGLVQAVGSLRLSGAASGSIFQYTAMGRYRQAPGKERELVAAISSRGGIRYYADSVKGRFTISRDNAKYTVFLQMNSLKPEDTAVYYCAAEAYYSDVRWSEYWGQGTQVTVSS
4. QVQLVESGGGLVQAGGSLRLSCAASGIIFDWYAMGWYRQAPGKERELVAAISDSGDTTYYADSVKGRFTISRDNAKNTVYLQMNSLKPEDTAVYYCNARVIGIYGYWGQGTQVTVSS

result:
1. low polyreactivity
2. high polyreactivity
3. high polyreactivity
4. high polyreactivity

I have 6 sequences here; please give me polyreactivity (PSR sort gate) for each one.
1. QVQLGESGGGLVQAGGSLRLSCAASGRTFWSYAMGWYREAAGKERELVAAITSSGGTTNDADSVKGRFTISRDNAKNTVYLQMNSLKPEDTAVYYCAAYSWYFGSRYDYWGQGTQVTVSS
2. QVQLVESGGGLVHAGGSHRLSCAASGTMGCYRQAPGKEMELVAAISQSGGSTYYADSVKGRFTISRDNAKNTVYLQMNSLKPEATAVYYCAVDPRYGHPRRDYWGQGTQVTVSS
3. QVQLVESGGGLVQAGGSLRLSCAASGFTFFVNAMGWYRQAPGKERELVAAISIRSGGRTYYADSVKGRFTISRDNAKNTVYLQMNSLKPEDTAVYYCAAESSRPEHTYHYYRFLFDYWGQGTQVTVSS
4. QVQLVESGGGLVQAGGSLRLSCAASGRILWQYAMGWYRPAPGKERELVAAITSSGADTYYADSVKGRFTISRDNAKNTVYLQMNSLKPEDTAVYYCNADASAVVYKFGFGYWGQGTQVTVSS
5. QVQLQESGCGLVQAGGSLRLSCAASGSISAVGAMGWYRQAPGKEREFAASVNWGTNTNYADSVKGRFTISRDNAKNTLYLLMNSLTPEDTAVYYCAVLPDWETRHDYWGHGTQVTVSS
6. QVQLVESGGGLVQAGGSLRLSCAASGRIFDPNAMGWYRQAPGKERELVAAISSRSGSTFYADSVKGRFTISRDNAKNTVYLQMNSLKPEDTAVYYCAAVYRFYKHNYWGQGTQVTVSS

result:
low polyreactivity
low polyreactivity
low polyreactivity
low polyreactivity
low polyreactivity
high polyreactivity
